Below, each of the binders is paired with its reported Kd value.
Molecular target: T1, recombinant human TRAIL R1 (DR4)/Fc chimera (human, UniProt O00220 24-239)
T1 construct: bought (R&D Systems); not shown: Fc of the bought chimera (R&D Systems)
T1 sequence: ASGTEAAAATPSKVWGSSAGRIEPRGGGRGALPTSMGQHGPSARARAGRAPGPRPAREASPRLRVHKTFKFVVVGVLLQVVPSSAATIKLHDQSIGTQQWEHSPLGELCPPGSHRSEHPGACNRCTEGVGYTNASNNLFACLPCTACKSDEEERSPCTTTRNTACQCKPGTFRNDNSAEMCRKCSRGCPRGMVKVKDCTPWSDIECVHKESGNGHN
Assay: SPR (Biacore), ATRIMER

# Binder, Scale Unit, Kd
records = [
    ("119p94P1G7 (designed binder, ATRIMER from pANA19) EPPTQKPKKIVNAKKDVVNTKMFEELKSRLDTLAQEVALLKEQQALQTVCLKGTKVHMKCFLAFTQTKTFHEASEDCISRGGTLSTPQTGSENDALYEYLRQSVGNEAEIWLGLNGWLEGVGWVDMTGARIAYKNWGWSARVQPDGGWPFSNENCAVLSGAANGKWFDKRCRDQLPYICQFGIV", "nM", 2.41),
    ("119p94P1D8 (designed binder, ATRIMER from pANA19) EPPTQKPKKIVNAKKDVVNTKMFEELKSRLDTLAQEVALLKEQQALQTVCLKGTKVHMKCFLAFTQTKTFHEASEDCISRGGTLSTPQTGSENDALYEYLRQSVGNEAEIWLGLNGWLEGVGWVDMTGARIAYKNWGWMDSKQPDGGWPFSNENCAVLSGAANGKWFDKRCRDQLPYICQFGIV", "nM", 1.31),
    ("29p61P1E11 (designed binder, ATRIMER; also called 029-61.1E11) EPPTQKPKKIVNAKKDVVNTKMFEELKSRLDTLAQEVALLKEQQALQTVCLKGTKVHMKCFLAFTQTKTFHEASEDCISRGGTLSTPQTGSENDALYEYLRQSVGNEAEIWLGLNGWLEGVGWVDMTGARIAYKNWETEITAQPDGGWPFSNENCAVLSGAANGKWFDKRCRDQLPYICQFGIV", "nM", 3.2),
    ("119p83P1H4 (designed binder, ATRIMER from pANA19) EPPTQKPKKIVNAKKDVVNTKMFEELKSRLDTLAQEVALLKEQQALQTVCLKGTKVHMKCFLAFTQTKTFHEASEDCISRGGTLSTPQTGSENDALYEYLRQSVGNEAEIWLGLNGWLEGVGWVDMTGARIAYKNWSKVRLEQPDGGWPFSNENCAVLSGAANGKWFDKRCRDQLPYICQFGIV", "nM", 0.16),
    ("119p83P1H1 (designed binder, ATRIMER from pANA19) EPPTQKPKKIVNAKKDVVNTKMFEELKSRLDTLAQEVALLKEQQALQTVCLKGTKVHMKCFLAFTQTKTFHEASEDCISRGGTLSTPQTGSENDALYEYLRQSVGNEAEIWLGLNGWLEGVGWVDMTGARIAYKNWTQRHSGQPDGGWPFSNENCAVLSGAANGKWFDKRCRDQLPYICQFGIV", "nM", 1.42),
    ("119p94P1F4 (designed binder, ATRIMER from pANA19) EPPTQKPKKIVNAKKDVVNTKMFEELKSRLDTLAQEVALLKEQQALQTVCLKGTKVHMKCFLAFTQTKTFHEASEDCISRGGTLSTPQTGSENDALYEYLRQSVGNEAEIWLGLNGWLEGVGWVDMTGARIAYKNWAAVTMEQPDGGWPFSNENCAVLSGAANGKWFDKRCRDQLPYICQFGIV", "nM", 2.96),
]
